Biological target: human Elastase, ELANE (gene 1991)
Assay: NVS_ENZ_hElastase: NovaScreen (NVS) Enzymatic Assay for human Elastase (AID 2283153)
Experimental: NVS_ENZ_hElastase is a biochemical, single-readout assay that uses extracted gene-proteins from Human neutrophils in a cell-free assay. Measurements were taken 1.5 hours after chemical dosing in a 96-well plate.NVS_ENZ_hElastase is one of one assay component(s) measured or calculated from the NVS_ENZ_hElastase assay. […] This assay endpoint, NVS_ENZ_hElastase, was analyzed in the positive analysis fitting direction relative to DMSO as the negative control and baseline of activity. […]
Inconclusive results are not listed. Calls of active or inactive are those of the source. The calls were made as follows: active = hit-call score of the fitted dose curve at least 0.9, where 1 is the maximum; inconclusive = response in the unintended direction; inactive = score below 0.9.
Field 'call' accepts true for active, false for inactive

Exercise: Tell me the assay call for "Nc1ccc(Cl)cc1N" please.
Key: false

Exercise: Tell me the assay call for "CCCCCCCCOC(=O)c1ccc(C(=O)OCCCCCCCC)c(C(=O)OCCCCCCCC)c1" please.
Key: true

Exercise: Tell me the assay call for "CCCCCOC(=O)c1ccccc1C(=O)OCCCCC" please.
Key: false

Exercise: Tell me the assay call for "COc1cc(C=O)cc2c1[C@H](COC(N)=O)[C@]1(OC(C)=O)ON2C[C@H]2[C@@H]1N2C(C)=O" please.
Key: true

# evaluate next
Exercise: Tell me the assay call for "CN(C)[C@@H]1C(=O)C(C(N)=O)=C(O)[C@@]2(O)C(=O)C3=C(O)c4c(O)cccc4[C@@](C)(O)[C@H]3C[C@@H]12" please.
Key: true
